Reported INHIBITION values are given for each entry in this list.
- Test system: Plasmodium berghei
- assay-explanation: Screen against P. berghei liver stage (PbLuc), transformed with Luciferase, at 10uM
- Type: functional, HepG2
- experimental-context: tested at 10 uM
Out of some 69,000 compounds screened, about 8,600 (12%) showed an effect of 50% or more. This is one part of a sample in which strong results are shown more often than they occur.
Just the number please, in %, no unit attached.

Known results for molecules:
# molecule, target-system, INHIBITION (%)
measured = [
    ("Cc1cc(CN2CCOC(CN(C)c3cccnn3)C2)no1 (stereo unspecified)", "Plasmodium berghei", 26.9),
    ("Cn1ccc2c(C(=O)N3CCCC3c3noc(C4CC4)n3)cccc21 (stereo unspecified)", "Plasmodium berghei", 19.2),
    ("CCN(CCSc1ccccc1)C(=O)c1cn(C2CCC(N)CC2)nn1 (stereo unspecified)", "Plasmodium berghei", -56.6),
]

Record Cc1nc(C)n(CC2CN(CCOc3cccc(C#N)c3)CCO2)n1 (stereo unspecified) . Reported INHIBITION: -5.07

The recorded INHIBITION for CC(C)C(=O)N1CC[C@H]2N(C)CC[C@@]2(C(=O)Nc2cccnc2)CC1 is -22.2

Entry under test: Cc1cc(CN2CCOC(CN(C)C)C2)no1 (stereo unspecified) . Its INHIBITION was 53.8

* * *

- System: Plasmodium berghei
- assay-explanation: Screen against P. berghei liver stage (PbLuc), transformed with Luciferase, at 10uM
- Format: functional, HepG2
- experimental-context: tested at 10 uM
About 8,600 (12%) of roughly 69,000 compounds showed an effect of 50% or more. Only a selection was taken, and strong results are over-represented in it overall.
reported-metric: INHIBITION
Put down the number, then write its unit next to it.

Given item CCOc1cc(CNC(=O)CNC(=O)CC2CCCCC2)ccn1 , the value recorded as its INHIBITION is 6.23%

Consider Cc1ccc(CN2CCC3(CC(=O)N(c4cccc(F)c4)C3)C2)o1 (configuration not stated) . Its measured INHIBITION is 12%

* * *

- Tested on: Plasmodium berghei
- assay-explanation: Screen against P. berghei liver stage (PbLuc), transformed with Luciferase, at 10uM
- Assay type: functional, HepG2
- experimental-context: tested at 10 uM
About 8,600 (12%) of roughly 69,000 compounds showed an effect of 50% or more. For the sample, strong results were picked, then their nearest neighbours and some compounds at random.
Entries and their measured INHIBITION follow.
// units = %; emit number, no label

Below, each entry is followed by its recorded INHIBITION result.
# molecule, INHIBITION / %
data = [
    ("O=C(Cc1ccsc1)N1CCC[C@@H]1Cn1c(=O)oc2ccccc21", 8.2),
    ("CCC(=O)N1CCC(c2nc(C)c3c(n2)N(C)CCC3)CC1", 34.1),
    ("O=C(NS(=O)(=O)c1ccc(C2CCCCC2)cc1)C1COCCO1 (centres undefined)", 46.4),
    ("COc1cccc([C@H]2CN(C(=O)c3scc4c3CCCC4)C[C@@H]2N)c1", 60.1),
    ("O=S(=O)(NCC1COCCO1)c1ccc(C2CCCCC2)cc1 (centres undefined)", 74.5),
]

The molecule CN(C)CCNC(=O)CCn1ncc2c(Cl)cccc21 , when measured on Plasmodium berghei, yielded INHIBITION of 55.7

Simply: Cc1ccccc1NC1CCN(C(=O)CCc2ccco2)CC1 , Plasmodium berghei, INHIBITION = -26.6

I looked up O=C(C1CCC2(CCN(CC3CCOCC3)CC2)O1)N1CCCCO1 (centres undefined) and its INHIBITION for Plasmodium berghei was 38.3

// assay Plasmodium berghei, entry CN(C)C(=O)CNC(=O)CCn1ncc2c(Cl)cccc21 , INHIBITION value = -15.8

Param item: COc1c(CNCc2ccc(N(C)C)nc2)c(C)nn1C ; param system: Plasmodium berghei; output INHIBITION: 11.25
